Reference source for all entries: PubChem BioAssay (NCI)

Test system: NCI/ADR-RES ovarian
test_details: NCI-60 one-dose screen, 48 h (100 = growth as untreated, 0 = no growth, -100 = all killed)
condition_description: 10 µM unless noted
About 83,000 compounds went through this panel and 20% of them were active in at least one assay; those are over-represented in the sample as a whole. Calls of active or inactive are those of the source. The calls were made as follows: active = growth percent below 10; inactive = the rest.
Item-by-item account of growth

Please review the entries below; each comes with its answer.
CC(C)Sc1ncnc2nc[nH]c12    102% (inactive)
CN(C)c1ccc2c(N(C)C)cc(N(C)C)nc2c1    77% (inactive)

INPUT: Request the reported growth associated with CC(=O)[C@@]1(O)CC[C@H]2[C@@H]3CC[C@@H]4CC(=O)CC[C@]4(C)[C@H]3[C@@H](O)C[C@@]21C
OUTPUT: 103% (inactive)

INPUT: Request the reported growth associated with Cc1ccc(S(=O)(=O)CCCl)cc1
OUTPUT: 105% (inactive)

INPUT: Request the reported growth associated with CSc1nsc(N)n1
OUTPUT: 101% (inactive)

====

Tested on: MDA-MB-435 melanoma
test_details: NCI-60 one-dose screen, 48 h
condition_description: 10 µM unless noted
Compounds without any hit were thinned out: in the full panel of roughly 83,000, 20% have a hit. The source made the active and inactive calls. How the source made its calls: active means growth percent below 10; inactive means the rest.
The reply should name one outcome from true (1) for active, false (0) for inactive

Worked cases, answers included:
Cc1c(Cl)cccc1N=C=S    false (0)
O=C(NC(=S)N1CC=CCC1)c1ccccc1    false (0)
COc1cc(C(=O)N2CCN(c3ccccc3)CC2)c2ccccc2n1    true (1)
O=c1cc(C(F)(F)F)[nH]c(=S)[nH]1    false (0)
c1ccc2c(NCCCN3CCN(CCCNc4c5ccccc5nc5ccccc45)CC3)c3ccccc3nc2c1    true (1)

Here is the next item to consider.
INPUT: Name the outcome recorded for CCOC(=O)c1c(C)[nH]c(C)c1C=O in the assay.
OUTPUT: false (0)

====

System: KM12 colon
test_details: NCI-60 one-dose screen, 48 h
condition_description: 10 µM unless noted
This is part of a sample that, as a whole, favours compounds with a hit. Of some 83,000 tested, about 20% had one in any assay. Activity calls are given as the source filed them. How the source made its calls: active means growth percent below 10; inactive means the rest.
The reply should name one outcome from Yes = active, No = inactive

Worked cases, answers included:
NC(=O)N1CCOCC1    No
OCCOc1ccc(-c2cc(-c3ccccn3)nc(-c3ccccn3)c2)cc1    Yes
CC(=O)Nc1ccc(C(=O)c2ccc(S(=O)(=O)Nc3ccccc3)cc2)cc1    No

Here is the next item to consider.
INPUT: Name the outcome recorded for CCOc1ccc(C(=O)O)cc1 in the assay.
OUTPUT: No

====

System: OVCAR-8 ovarian
test_details: NCI-60 one-dose screen, 48 h (100 = growth as untreated, 0 = no growth, -100 = all killed)
condition_description: 10 µM unless noted
Compounds without any hit were thinned out: in the full panel of roughly 83,000, 20% have a hit.
Item-by-item account of growth
Please respond with the number in % and leave the unit unwritten.

INPUT: Request the reported growth associated with CC1(C)CC(=O)C=C(N)C1
OUTPUT: 97.1

====

Test system: RXF 393 renal
test_details: NCI-60 one-dose screen, 48 h (100 = growth as untreated, 0 = no growth, -100 = all killed)
condition_description: 10 µM unless noted
About 83,000 compounds went through this panel and 20% of them were active in at least one assay; those are over-represented in the sample as a whole.
recorded_metric: growth (%)
Please respond with the number in % and leave the unit unwritten.

Please review the entries below; each comes with its answer.
CN(C(=S)S(=O)(=O)C12CC3CC(CC(C3)C1)C2)c1ccccc1    111
Nc1ncc([N+](=O)[O-])cn1    110
CC(=O)[C@@]1(O)CC[C@H]2[C@@H]3CC[C@@H]4CC(=O)CC[C@]4(C)[C@H]3[C@@H](O)C[C@@]21C    105

INPUT: Request the reported growth associated with O=C(O)Cc1cccc2ccccc12
OUTPUT: 117

INPUT: Request the reported growth associated with O=[N+]([O-])c1c(O)c(CNCCCO)cc(CNCCCO)c1O
OUTPUT: 99.7

INPUT: Request the reported growth associated with CC1CC2C3CCC4=CC(=O)CCC4(C)C3CCC2(C)C1(O)C(=O)CO (stereo unspecified)
OUTPUT: 122
